- target-desc: NAD-dependent protein deacetylase sirtuin-1 (Homo sapiens) (UniProt Q96EB6)
- Sequence (Q96EB6 whole entry): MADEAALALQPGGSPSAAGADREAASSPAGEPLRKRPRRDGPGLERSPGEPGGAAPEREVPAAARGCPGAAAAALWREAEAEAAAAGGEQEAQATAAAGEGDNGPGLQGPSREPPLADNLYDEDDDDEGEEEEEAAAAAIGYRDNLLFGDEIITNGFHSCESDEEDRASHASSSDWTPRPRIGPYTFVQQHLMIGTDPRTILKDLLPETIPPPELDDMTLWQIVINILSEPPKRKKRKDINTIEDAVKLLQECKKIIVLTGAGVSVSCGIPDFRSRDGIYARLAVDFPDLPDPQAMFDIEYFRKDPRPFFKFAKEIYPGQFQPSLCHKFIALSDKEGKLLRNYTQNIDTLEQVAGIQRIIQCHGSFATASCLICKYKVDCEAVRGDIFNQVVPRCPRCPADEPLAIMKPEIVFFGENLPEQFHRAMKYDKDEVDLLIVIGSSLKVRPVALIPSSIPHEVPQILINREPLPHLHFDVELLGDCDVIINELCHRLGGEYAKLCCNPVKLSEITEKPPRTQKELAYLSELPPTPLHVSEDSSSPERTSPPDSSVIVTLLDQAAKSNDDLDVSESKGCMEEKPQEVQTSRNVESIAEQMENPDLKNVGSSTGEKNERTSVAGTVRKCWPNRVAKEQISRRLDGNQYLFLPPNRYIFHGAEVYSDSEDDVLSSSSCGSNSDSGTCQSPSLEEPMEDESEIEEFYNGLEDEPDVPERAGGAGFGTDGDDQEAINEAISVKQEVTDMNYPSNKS
- assay-explanation: Inhibition of recombinant Sirt1 (unknown origin) using ZMAL as fluorescence substrate at 50 uM incubated for 4.3 hrs by homogenous fluorescent deacetylase assay
Listed next: entries and their corresponding inhibition.

These recorded examples may help you get a feel for the data.
structure-string: O=C(O)CCNC(=O)c1ccc(-c2cc(-c3ccc(O)c(C(=O)O)c3)n[nH]2)cc1
inhibition: < 10%
--
structure-string: NC(=O)c1cc(/N=N/c2ccc(C(=O)NCCC(=O)O)cc2)ccc1O
inhibition: 27%
--
structure-string: O=C(O)CCNC(=O)c1ccc(S(=O)(=O)Nc2ccc(O)c(C(=O)O)c2)cc1
inhibition: < 10%

Then there is this compound:
Would you mind telling me what inhibition value was observed for `O=C(O)CCNC(=O)c1ccc2c(c1)CCN(c1ccc(O)c(C(=O)O)c1)C2` ?
14%

* * *

- target-desc: UniProt O00746
- Sequence (O00746 whole entry): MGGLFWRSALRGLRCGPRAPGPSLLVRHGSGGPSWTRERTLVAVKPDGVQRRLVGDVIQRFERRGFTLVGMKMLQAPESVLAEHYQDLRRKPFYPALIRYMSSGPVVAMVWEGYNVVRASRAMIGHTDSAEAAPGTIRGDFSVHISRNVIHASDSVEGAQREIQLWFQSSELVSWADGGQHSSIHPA
- assay-explanation: Binding affinity to NME4 in human MCF7 cell lysate by pull down assay based LC-MS/MS analysis
measured-quantity: EC50 (µM)

[A] O=C(O)CCNC(=O)c1ccc(-c2cn(-c3ccc(O)c(C(=O)O)c3)nn2)cc1
[B] O=C(O)CCNC(=O)c1ccc(-c2cc(-c3ccc(O)c(C(=O)O)c3)n[nH]2)cc1
[C] O=C(O)CCNC(=O)c1ccc(/N=N/c2ccc(O)c(C(=O)O)c2)cc1 [BALSALAZIDE]
Sort by EC50, descending. Please list each label once, in the requested order.
C, B, A

* * *

- target-desc: UniProt Q8IXJ6
- Sequence (Q8IXJ6 whole entry): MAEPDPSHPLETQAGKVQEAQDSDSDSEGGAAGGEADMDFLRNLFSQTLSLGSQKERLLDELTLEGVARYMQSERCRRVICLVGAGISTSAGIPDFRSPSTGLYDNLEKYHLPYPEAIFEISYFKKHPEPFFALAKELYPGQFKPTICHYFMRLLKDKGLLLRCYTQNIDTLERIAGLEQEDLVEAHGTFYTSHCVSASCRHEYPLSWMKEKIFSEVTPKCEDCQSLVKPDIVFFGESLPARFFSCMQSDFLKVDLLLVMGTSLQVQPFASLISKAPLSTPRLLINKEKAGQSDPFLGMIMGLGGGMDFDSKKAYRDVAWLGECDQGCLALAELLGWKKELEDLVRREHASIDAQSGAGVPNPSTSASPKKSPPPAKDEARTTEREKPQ
- assay-explanation: Inhibition of recombinant Sirt2 (unknown origin) using ZMAL as fluorescence substrate at 50 uM incubated for 4.3 hrs by homogenous fluorescent deacetylase assay
measured-quantity: inhibition (%)

These recorded examples may help you get a feel for the data.
structure-string: O=C(O)CCNC(=O)c1ccc(/N=N/c2ccc(F)c(C(=O)O)c2)cc1
units: %
inhibition: 13
//
structure-string: O=C(O)CCNC(=O)c1ccc2c(c1)CCN(c1ccc(O)c(C(=O)O)c1)C2
units: %
inhibition: 16

[1] O=C(O)CCNC(=O)c1ccc(-c2cn(-c3ccc(O)c(C(=O)O)c3)nn2)cc1
[2] NC(=O)c1cc(/N=N/c2ccc(C(=O)NCCC(=O)O)cc2)ccc1O
// pick larger inhibition from pair: 1 vs 2 Indicate which entry you chose by stating its label.
2

* * *

- target-desc: NAD-dependent protein deacylase sirtuin-5, mitochondrial (Homo sapiens)
- Sequence (Q9NXA8 37-310 limits assumed): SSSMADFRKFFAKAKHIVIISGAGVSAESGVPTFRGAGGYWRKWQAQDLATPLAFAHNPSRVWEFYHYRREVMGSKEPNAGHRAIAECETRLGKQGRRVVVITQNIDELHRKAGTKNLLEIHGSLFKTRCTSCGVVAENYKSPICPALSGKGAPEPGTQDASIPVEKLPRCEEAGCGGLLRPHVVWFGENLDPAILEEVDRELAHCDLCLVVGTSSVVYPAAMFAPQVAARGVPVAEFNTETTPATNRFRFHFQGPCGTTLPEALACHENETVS
- assay-explanation: Inhibition of recombinant human Sirt5 at 50 uM incubated for 1 hr by FLUOR DE LYS fluorometric microplate reader assay
measured-quantity: inhibition (%)

structure-string: O=C(O)CCNC(=O)c1ccc(-c2cc(-c3ccc(O)c(C(=O)O)c3)no2)cc1
inhibition / %: 80
//
structure-string: O=C(O)CCNC(=O)c1ccc(NCc2ccc(O)c(C(=O)O)c2)cc1
inhibition / %: 63
//
structure-string: O=C(O)CCNC(=O)c1ccc(/N=N/c2ccc(F)c(C(=O)O)c2)cc1
inhibition / %: 80
//
structure-string: NC(=O)c1cc(/N=N/c2ccc(C(=O)NCCC(=O)O)cc2)ccc1O
inhibition / %: 87
//
structure-string: O=C(O)CCNC(=O)c1ccc(C(=O)Nc2ccc(O)c(C(=O)O)c2)cc1
inhibition / %: 64
//
structure-string: O=C(O)CCNC(=O)c1ccc(COc2ccc(O)c(C(=O)O)c2)cc1
inhibition / %: 51

[A] O=C(O)CCNC(=O)c1ccc(CCc2ccc(O)c(C(=O)O)c2)cc1
[B] O=C(O)CCNC(=O)c1ccc(-c2cn(-c3ccc(O)c(C(=O)O)c3)nn2)cc1
[C] O=C(O)CCNC(=O)c1ccc(NS(=O)(=O)c2ccc(O)c(C(=O)O)c2)cn1
Ascending by inhibition, please: list the molecules accordingly. Please list each label once, in the requested order.
C, A, B
(C: 25%, A: 37%, B: 84%)
